Origin of the recorded values: patent US20230416363A1

Reported values of MFI, 5 nM for individual entries
- System Under Test: T1, human PD-1 expressed on cells (human, UniProt Q15116 25-288)
- T1 construct: whole, on cells
- T1 sequence (Q15116 25-288): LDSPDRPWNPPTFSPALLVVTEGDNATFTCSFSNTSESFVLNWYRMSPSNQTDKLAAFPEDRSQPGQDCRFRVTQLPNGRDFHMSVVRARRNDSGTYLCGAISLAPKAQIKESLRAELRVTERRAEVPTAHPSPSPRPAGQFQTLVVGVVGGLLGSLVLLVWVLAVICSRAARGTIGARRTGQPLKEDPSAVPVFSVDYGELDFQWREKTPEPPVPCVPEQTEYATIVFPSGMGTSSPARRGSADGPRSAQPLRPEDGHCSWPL
- Measurement Description: flow cytometry, SEB-activated PBMC donor

| Binder | Unit Of Measure | MFI, 5 nM |
| --- | --- | --- |
| 38B2 (antibody, V domains shown, 24H9 derivative, IgG; also called 780_54; hPD1 Ab (38B2)) VH: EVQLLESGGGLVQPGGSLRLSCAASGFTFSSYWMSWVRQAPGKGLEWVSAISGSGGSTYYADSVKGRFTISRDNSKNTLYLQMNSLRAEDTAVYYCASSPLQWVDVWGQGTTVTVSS VL: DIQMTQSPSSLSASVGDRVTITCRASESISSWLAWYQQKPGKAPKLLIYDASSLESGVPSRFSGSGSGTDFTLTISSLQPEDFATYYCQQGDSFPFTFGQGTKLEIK | MFI | 64.2 |
| 33C4 (antibody, V domains shown, also called 780_39) VH: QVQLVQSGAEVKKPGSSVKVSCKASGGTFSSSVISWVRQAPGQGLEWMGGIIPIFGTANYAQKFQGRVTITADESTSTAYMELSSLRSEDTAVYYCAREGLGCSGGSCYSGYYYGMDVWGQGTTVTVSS VL: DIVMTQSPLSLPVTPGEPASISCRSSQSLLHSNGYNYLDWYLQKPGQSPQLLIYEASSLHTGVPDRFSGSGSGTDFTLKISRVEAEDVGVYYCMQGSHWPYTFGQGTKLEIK | MFI | 77.8 |
| 38A6 (antibody, V domains shown, also called 780_46) VH: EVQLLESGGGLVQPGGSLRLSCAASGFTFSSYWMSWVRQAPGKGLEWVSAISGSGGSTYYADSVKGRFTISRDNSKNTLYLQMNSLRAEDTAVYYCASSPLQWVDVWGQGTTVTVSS VL: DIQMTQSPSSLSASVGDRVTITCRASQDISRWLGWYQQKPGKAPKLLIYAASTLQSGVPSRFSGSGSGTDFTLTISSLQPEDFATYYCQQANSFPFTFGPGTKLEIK | MFI | 65.2 |
| 31B1 (antibody, V domains shown, also called 780_38; 33B1 and 31B2 (apparent misprints)) VH: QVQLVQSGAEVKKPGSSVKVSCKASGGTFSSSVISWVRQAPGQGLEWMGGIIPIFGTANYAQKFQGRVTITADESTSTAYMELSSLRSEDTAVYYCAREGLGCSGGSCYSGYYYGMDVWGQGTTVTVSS VL: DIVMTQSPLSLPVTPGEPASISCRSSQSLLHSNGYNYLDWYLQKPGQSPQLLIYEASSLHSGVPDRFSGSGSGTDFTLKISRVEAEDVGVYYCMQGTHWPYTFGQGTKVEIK | MFI | 98.5 |
